- System: HT-29
- TEST DESCRIPTION: Cytotoxicity against human HT29 cells after 48 hrs by SRB assay
- Type: functional, cell-based
- APPLIED CONDITIONS: Homo sapiens, HT-29, 48 h; read-out: LC50 (the source's name)
// reported CC50 for each item listed
Numeric answer only, unit nM assumed.

[[record]]
item_smiles = "C/C=C1\\NC(=O)[C@H](Cc2ccccc2)NC(=O)[C@@H](C(C)C)NC(=O)[C@@H]([C@H](C)CC)NC(=O)[C@H](NC(=O)[C@H](NC(=O)[C@H](CCCN)NC(=O)[C@H]2CCCN2C(=O)[C@H](NC(=O)[C@@H](NC(=O)[C@@H](NC(=O)[C@H](NC(=O)c2ccc3c(c2)OCO3)C(C)C)[C@@H](C)O)C(C)C)C(C)C)[C@H](C)CC)[C@H](C)OC(=O)[C@H](C(C)C)NC1=O"
assay_metric = "CC50"
experimental_result = 409


**Q:** May I ask what CC50 has been recorded for C/C=C1\NC(=O)[C@H](Cc2ccccc2)NC(=O)[C@@H](C(C)C)NC(=O)[C@@H]([C@H](C)CC)NC(=O)[C@H](NC(=O)[C@H](NC(=O)[C@H](CCCN)NC(=O)[C@H]2CCCN2C(=O)[C@H](NC(=O)[C@@H](NC(=O)[C@@H](NC(=O)[C@H](NC(=O)CCCCC(C)(F)F)C(C)C)[C@@H](C)O)C(C)C)C(C)C)[C@H](C)CC)[C@H](C)OC(=O)[C@H](C(C)C)NC1=O ?
**A:** 3190

**Q:** # input compound: C/C=C1\NC(=O)[C@H](Cc2ccccc2)NC(=O)[C@@H](C(C)C)NC(=O)[C@@H]([C@H](C)CC)NC(=O)[C@H](NC(=O)[C@H](NC(=O)[C@H](CCCN)NC(=O)[C@H]2CCCN2C(=O)[C@H](NC(=O)[C@H](CCC(N)=O)NC(=O)[C@@H](NC(=O)[C@H](NC(=O)CCCC(C)C)C(C)C)[C@@H](C)O)C(C)C)[C@H](C)CC)[C@H](C)OC(=O)[C@H](C(C)C)NC1=O ; wanted: its CC50
**A:** 869

----------
- System: LoVo
- TEST DESCRIPTION: Cytotoxicity against human doxorubicin resistant LoVo cells after 48 hrs by SRB assay
- Type: functional
Item-by-item account of GI50
Returns: string containing the number followed by the unit.

[[record]]
item_smiles = "C/C=C1\\NC(=O)[C@H](Cc2ccccc2)NC(=O)[C@@H](C(C)C)NC(=O)[C@@H]([C@H](C)CC)NC(=O)[C@H](NC(=O)[C@H](NC(=O)[C@H](CCCCN)NC(=O)[C@H]2CCCN2C(=O)[C@H](NC(=O)[C@@H](NC(=O)[C@@H](NC(=O)[C@H](NC(=O)CCCC(C)C)C(C)C)[C@@H](C)O)C(C)C)C(C)C)[C@H](C)CC)[C@H](C)OC(=O)[C@H](C(C)C)NC1=O"
system_tested = "LoVo"
assay_metric = "GI50"
experimental_result = "301 nM"


Here is another compound to look at.
**Q:** // map C/C=C1\NC(=O)[C@H](Cc2ccccc2)NC(=O)[C@@H](C(C)C)NC(=O)[C@@H]([C@H](C)CC)NC(=O)[C@H](NC(=O)[C@H](NC(=O)[C@H](CCCN)NC(=O)[C@H]2CCCN2C(=O)[C@H](NC(=O)[C@@H](NC(=O)[C@@H](NC(=O)[C@H](NC(=O)C(F)(F)C(F)(F)C(F)(F)C(F)(F)C(F)(F)C(F)(F)F)C(C)C)[C@@H](C)O)C(C)C)C(C)C)[C@H](C)CC)[C@H](C)OC(=O)[C@H](C(C)C)NC1=O to recorded GI50 (system: LoVo)
**A:** 286 nM

----------
- TEST DESCRIPTION: Cytotoxicity against human IGROV-ET cells after 48 hrs by SRB assay
- Assay type: functional
- APPLIED CONDITIONS: read-out: LC50 (the source's name)
Reported CC50 values are given for each entry in this list.
Write the numeric value and follow it with the unit.

Use the examples below as a reference point.
[[record]]
compound = "C/C=C1\\NC(=O)[C@H](Cc2ccccc2)NC(=O)[C@@H](C(C)C)NC(=O)[C@@H]([C@H](C)CC)NC(=O)[C@H](NC(=O)[C@H](NC(=O)[C@H](CCCNC(=O)/C=C/CCC)NC(=O)[C@H]2CCCN2C(=O)[C@H](NC(=O)[C@@H](NC(=O)[C@@H](NC(=O)[C@H](NC(=O)CCCC(C)C)C(C)C)[C@@H](C)O)C(C)C)C(C)C)[C@H](C)CC)[C@H](C)OC(=O)[C@H](C(C)C)NC1=O"
experimental_result = "517 nM"

[[record]]
compound = "C/C=C1\\NC(=O)[C@H](Cc2ccccc2)NC(=O)[C@@H](C(C)C)NC(=O)[C@@H]([C@H](C)CC)NC(=O)[C@H](NC(=O)[C@H](NC(=O)[C@H](CCCN)NC(=O)[C@H]2CCCN2C(=O)[C@H](NC(=O)[C@@H](NC(=O)[C@@H](NC(=O)[C@H](NC(=O)C2CCC(C)CC2)C(C)C)[C@@H](C)O)C(C)C)C(C)C)[C@H](C)CC)[C@H](C)OC(=O)[C@H](C(C)C)NC1=O (stereo partly drawn)"
experimental_result = "426 nM"


**Q:** CC50 for C/C=C1\NC(=O)[C@H](Cc2ccccc2)NC(=O)[C@@H](C(C)C)NC(=O)[C@@H]([C@H](C)CC)NC(=O)[C@H](NC(=O)[C@H](NC(=O)[C@H](CCCN)NC(=O)[C@H]2CCCN2C(=O)[C@H](NC(=O)[C@@H](NC(=O)[C@@H](NC(=O)[C@H](NC(=O)Cc2ccc(C(F)(F)F)cc2)C(C)C)[C@@H](C)O)C(C)C)C(C)C)[C@H](C)CC)[C@H](C)OC(=O)[C@H](C(C)C)NC1=O ?
**A:** 524 nM

----------
- TEST DESCRIPTION: Cytotoxicity against human IGROV-ET cells after 48 hrs by SRB assay
- Type: functional
- APPLIED CONDITIONS: read-out: LC50 (the source's name)
ASSAY METRIC: CC50 (nM)
# number only, unit nM dropped from output

[[record]]
item_smiles = "C/C=C1\\NC(=O)[C@H](Cc2ccccc2)NC(=O)[C@@H](C(C)C)NC(=O)[C@@H]([C@H](C)CC)NC(=O)[C@H](NC(=O)[C@H](NC(=O)[C@H](CCCN)NC(=O)[C@H]2CCCN2C(=O)[C@H](NC(=O)[C@@H](NC(=O)[C@@H](NC(=O)[C@H](NC(=O)CCCCCC)C(C)C)[C@@H](C)O)C(C)C)C(C)C)[C@H](C)CC)[C@H](C)OC(=O)[C@H](C(C)C)NC1=O"
assay_metric = "CC50"
experimental_result = 394

[[record]]
item_smiles = "C/C=C1\\NC(=O)[C@H](Cc2ccccc2)NC(=O)[C@@H](C(C)C)NC(=O)[C@@H]([C@H](C)CC)NC(=O)[C@H](NC(=O)[C@H](NC(=O)[C@H](CCCN)NC(=O)[C@H]2CCCN2C(=O)[C@H](NC(=O)[C@@H](NC(=O)[C@@H](NC(=O)[C@H](NC(=O)CCCCCCC)C(C)C)[C@@H](C)O)C(C)C)C(C)C)[C@H](C)CC)[C@H](C)OC(=O)[C@H](C(C)C)NC1=O"
assay_metric = "CC50"
experimental_result = 393


Consider now this further molecule.
**Q:** Using the record for C/C=C1\NC(=O)[C@H](Cc2ccccc2)NC(=O)[C@@H](C(C)C)NC(=O)[C@@H]([C@H](C)CC)NC(=O)[C@H](NC(=O)[C@H](NC(=O)[C@H](CCCN)NC(=O)[C@H]2CCCN2C(=O)[C@H](NC(=O)[C@@H](NC(=O)[C@@H](NC(=O)[C@@H](CCCN)NC(=O)CCCC(C)C)[C@@H](C)O)C(C)C)C(C)C)[C@H](C)CC)[C@H](C)OC(=O)[C@H](C(C)C)NC1=O , report its CC50.
**A:** 559

----------
- Test system: PANC-1
- TEST DESCRIPTION: Cytotoxicity against human PANC1 cells after 48 hrs by SRB assay
- Assay type: functional
- APPLIED CONDITIONS: PANC-1, 48 h, read-out: LC50 (the source's name)
# CC50 listing for each entry below
Respond numerically; units are nM and should not be typed.

[[record]]
item_smiles = "CC[C@@H]1NC(=O)[C@H](Cc2ccccc2)NC(=O)[C@@H](C(C)C)NC(=O)[C@@H]([C@H](C)CC)NC(=O)[C@H](NC(=O)[C@H](NC(=O)[C@H](CCCN)NC(=O)[C@H]2CCCN2C(=O)[C@H](NC(=O)[C@@H](NC(=O)[C@@H](NC(=O)[C@H](NC(=O)CCCC(C)C)C(C)C)[C@@H](C)O)C(C)C)C(C)C)[C@H](C)CC)[C@H](C)OC(=O)[C@H](C(C)C)NC1=O"
unit_name = "nM"
experimental_result = 2830

[[record]]
item_smiles = "C/C=C1\\NC(=O)[C@H](Cc2ccccc2)NC(=O)[C@@H](C(C)C)NC(=O)[C@@H]([C@H](C)CC)NC(=O)[C@H](NC(=O)[C@H](NC(=O)[C@H](CCCN)NC(=O)[C@H]2CCCN2C(=O)[C@H](NC(=O)[C@@H](NC(=O)[C@@H]2CCCN2C(=O)[C@H](NC(=O)CCCC(C)C)C(C)C)C(C)C)C(C)C)[C@H](C)CC)[C@H](C)OC(=O)[C@H](C(C)C)NC1=O"
unit_name = "nM"
experimental_result = 2280


The record that follows has no CC50 shown yet.
**Q:** Tell me reported CC50 for C/C=C1\NC(=O)[C@H](Cc2ccccc2)NC(=O)[C@@H](C(C)C)NC(=O)[C@@H](C(C)C)NC(=O)[C@H](NC(=O)[C@H](NC(=O)[C@H](CCCN)NC(=O)[C@H]2CCCN2C(=O)[C@H](NC(=O)[C@@H](NC(=O)[C@@H](NC(=O)[C@H](NC(=O)CCCC(C)C)C(C)C)[C@@H](C)O)C(C)C)C(C)C)C(C)C)[C@H](C)OC(=O)[C@H](C(C)C)NC1=O , tested with PANC-1.
**A:** 2190
